The values you see were collected from patent US6358885B1.

tested on: morningglory; experiment: Test C preemergence/postemergence greenhouse plant response rating 0 to 100; assay type: in vivo, Ipomoea hederacea; conditions: POSTEMERGENCE; Rate 4 g/ha
endpointName: Plant response rating (0 to 100), Morningglory
When you answer, write just the number.

// CC(C)COc1cc(-c2nn3c(c2Cl)CCCC3)c(F)cc1Cl : Plant response rating (0 to 100), Morningglory value = 30

// C=CCN1C(=O)COc2cc(F)c(-c3nn4c(c3Cl)CCCC4)cc21 : Plant response rating (0 to 100), Morningglory value = 70

// CCN1C(=O)COc2cc(F)c(-c3nn4c(c3Cl)CCCC4)cc21 : Plant response rating (0 to 100), Morningglory value = 100

// C#CCOc1cc(-c2nn3c(c2Br)CCCC3)c(F)cc1Cl : Plant response rating (0 to 100), Morningglory value = 50

// CC(C)N1C(=O)COc2cc(F)c(-c3nn4c(c3Cl)CCCC4)cc21 : Plant response rating (0 to 100), Morningglory value = 100
